Taken from patent US20240150440A1.

molecular target: SARS-CoV-2 spike protein on pseudotyped lentivirus (Wuhan Reference Pseudovirus) (SARS-CoV-2, UniProt P0DTC2 14-1273); assay: cell-based or functional assay
MEASURED PARAMETER: Pseudovirus neutralization IC50 (nM)
Give bare numbers, in nM.

# BINDER, UNIT TAG, Pseudovirus neutralization IC50
data = [
    ("PP1148 MBP-5HVZ-PAPA-R5a-C5-H6 (VHH, Form: Dimer) VHH: QVQLVESGGGLVQPGGSLRLSCAASGDIFSINALHWFRQAPGKQREEVAAITSGGSTGYADSVKGRFTISRDNAKNTVYLQMNSLKPEDTAVYYCAAQQARGGLDSDYWGQGTQVTVSS", "nM", 15.7),
]

Could you now consider this next binder?
What value of Pseudovirus neutralization IC50 has been reported for the following binder? PP1132 MBP-4B0F-PAPA-R2c-F6-H6 (VHH, Form: Heptamer) VHH: QVQLVESGGGLVQPGGSLRLSCAASGRILAANIVHWYRQAPGKEREGVAGITTGGSNYYSDSVKGRFTISRDNAKNTVYLQMNSLKPEDTAVYYCNALGLGSASGSYESWGQGTQVTVSS
4.14
